# METHOD: Pharmacokinetic Assay, single oral dose 5 mg/kg (Table 12)
# Assay type: in vivo
# MEASUREMENT_SETUP: mouse; plasma concentration, C57 female mice, single oral dose 5 mg/kg, 4 h
READOUT_TYPE: concentration at 4 h (ng/mL)

• Cc1c(-c2nc3cc(CN4CCC[C@H]4C(=O)O)c(OC(F)F)cc3o2)cccc1-c1cccc(-c2nc3cc(CN4CCCC4)c(F)c(F)c3o2)c1C = 292
• C=C1CN(Cc2cc3nc(-c4cccc(-c5cccc(-c6nc7cc(CN8CCC[C@H]8C(=O)O)c(OC(F)F)cc7o6)c5C)c4C)oc3cc2OC(F)F)C1 = 383
• Cc1c(-c2nc3cc(CN4CCC[C@H]4C(=O)O)c(OC(F)F)cc3o2)cccc1-c1cccc(-c2ccc(CN3CCCC3)cc2F)c1C = 181
• Cc1c(-c2nc3cc(CN4CCC[C@H]4C(=O)O)c(OC(F)F)cc3o2)cccc1-c1cccc(-c2nc3cc(CN4CC[C@@H](C)C4)cc(C#N)c3o2)c1C = 470
• Cc1nc(-c2cccc(-c3cccc(-c4nc5cc(CN6CCC[C@H]6C(=O)O)c(OC(F)F)cc5o4)c3C)c2C)oc1CN1CCCC1 = 74.2
• Cc1c(-c2nc3cc(CN4CCN(C)C(C)C4)c(OC(F)F)cc3o2)cccc1-c1cccc(-c2nc3cc(CN4CCC[C@H]4C(=O)O)c(OC(F)F)cc3o2)c1C (stereo partly drawn) = 94.7

###

Reported pIC50 by item:
# TARGET_DESC: PD-1/PD-L1 (Homo sapiens (Human), UniProt Q9NZQ7)
# Sequence (Q9NZQ7 19-238): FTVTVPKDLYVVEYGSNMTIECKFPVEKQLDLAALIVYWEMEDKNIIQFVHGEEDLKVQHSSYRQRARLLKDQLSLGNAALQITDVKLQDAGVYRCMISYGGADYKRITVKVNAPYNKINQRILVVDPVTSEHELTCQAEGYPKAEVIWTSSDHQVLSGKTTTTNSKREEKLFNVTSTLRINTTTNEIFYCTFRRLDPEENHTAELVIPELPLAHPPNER
# METHOD: PD-1/PD-L1 Binding Assay (Alphascreen)
# MEASUREMENT_SETUP: range symbols
pIC50: −log10 of the molar value.
READOUT_TYPE: pIC50

* Cc1c(-c2nc3cc(CN4CCC[C@H]4C(=O)O)c(OC(F)F)cc3o2)cccc1-c1cccc(-c2nc3cc(CN4CCCC4)cc(C(F)(F)F)c3o2)c1C [Example 100] | 8.30 to 10.00
* Cc1c(-c2nc3cc(CN4CCC[C@@H]4C(=O)O)c(OC(F)F)cc3o2)cccc1-c1cccc(-c2nc3cc(CN4CC(C)(C)C4)cc(C#N)c3o2)c1C [Example 140] | 8.30 to 10.00
* CNCc1cc2nc(-c3cccc(-c4cccc(-c5nc6cc(CN7CCC[C@H]7C(=O)O)c(OC(F)F)cc6o5)c4C)c3C)oc2cc1OCc1cccc(S(C)(=O)=O)c1 [Example 124] | 8.30 to 10.00
* Cc1c(-c2nc3cc(CN4CCC45COC5)ccc3o2)cccc1-c1cccc(-c2nc3cc(CN4CCC[C@H]4C(=O)O)c(OC(F)F)cc3o2)c1C [Example 106] | 8.30 to 10.00
* COC1CN(Cc2cc3nc(-c4cccc(-c5cccc(-c6nc7cc(CN8CCC[C@H]8C(=O)O)c(OC(F)F)cc7o6)c5C)c4C)oc3cc2OC(F)F)C1 [Example 43] | 7.30 to 8.30

###

Reported IC50 by item:
# TARGET_DESC: PD-1/PD-L1 (Homo sapiens (Human), UniProt Q9NZQ7)
# METHOD: PD-1/PD-L1 Binding Assay (Alphascreen)
# MEASUREMENT_SETUP: numeric values
READOUT_TYPE: IC50 (nM)

• COc1cc(-c2cccc(-c3cccc(-c4nc5cc(CN6CCC[C@H]6C(=O)O)c(OC(F)F)cc5o4)c3C)c2C)cc(F)c1CN1CCCC1 [Example 235] = 1.8
• Cc1c(-c2nc3cc(CN4CCC[C@H]4C(=O)O)c(OC(F)F)cc3o2)cccc1-c1cccc(-c2nc3cc(CN4CC(C)(C)C4)cc(C#N)c3o2)c1C [Example 103] = 0.13
• Cc1c(-c2nc3cc(CN4CC(C(C)(C)O)C4)c(OC(F)F)cc3o2)cccc1-c1cccc(-c2nc3cc(CN4CCC[C@H]4C(=O)O)c(OC(F)F)cc3o2)c1C [Example 69] = 0.49
• CCNCc1cc2nc(-c3cccc(-c4cccc(-c5nc6cc(CN7CCC[C@H]7C(=O)O)c(OC(F)F)cc6o5)c4C)c3C)oc2cc1F [Example 96] = 0.6
• Cc1c(-c2ccc(CN3CCCC3)c(Cl)c2)cccc1-c1cccc(-c2nc3cc(CN4CCC[C@H]4C(=O)O)c(OC(F)F)cc3o2)c1C [Example 229] = 6.9
• Cc1c(Nc2nccc3cc(CN4CCC(O)C4)cnc23)cccc1-c1cccc(-c2nc3cc(CN4CCC[C@H]4C(=O)O)c(OC(F)F)cc3o2)c1C (stereo partly shown) [Example 175] = 3.4
• Cc1c(-c2nc3cc(CN4CCC[C@H]4C(=O)O)c(OC(F)F)cc3o2)cccc1-c1cccc(N2CCC(N3CCCC3)CC2)c1C [Example 306] = 1.5
• Cc1c(-c2nc3cc(CN4CCC(C)C4)c(OC(F)F)cc3o2)cccc1-c1cccc(-c2nc3cc(CN4CCC[C@H]4C(=O)O)c(OC(F)F)cc3o2)c1C (stereo partly shown) [Example 61] = 1.6
• Cc1c(-c2nc3c(o2)CCN(C)C3)cccc1-c1cccc(-c2nc3cc(CN4CCC[C@H]4C(=O)O)c(OC(F)F)cc3o2)c1C [Example 314] = 8
• Cc1c(-c2nc3cc(CN4CCC[C@H]4C(=O)O)c(OC(F)F)cc3o2)cccc1-c1cccc(-c2nc3cc(CN4CC(C)(C)C4)cnc3o2)c1C [Example 113] = 0.5
• Cc1c(-c2nc3cc(CN4CCC[C@H]4C(=O)O)c(OC(F)F)cc3o2)cccc1-c1cccc(-c2nc3cc(CN4CCC[C@H]4C(=O)O)c(OC(F)F)cc3o2)c1C [Example 2] = 0.2
• Cc1c(-c2ccc(CN3CCCC3)c(C(=O)O)c2)cccc1-c1cccc(-c2nc3cc(CN4CCC[C@H]4C(=O)O)c(OC(F)F)cc3o2)c1C [Example 236] = 290
• Cc1c(-c2nc3cc(CN4CCC[C@@H]4C(=O)O)c(OC(F)F)cc3o2)cccc1-c1cccc(-c2nc3cc(CN4CC[C@@H](C)C4)cc(C#N)c3o2)c1C [Example 132] = 2
• Cc1c(-c2nc3cc(CN4CC=CC4)c(OC(F)F)cc3o2)cccc1-c1cccc(-c2nc3cc(CN4CCC[C@H]4C(=O)O)c(OC(F)F)cc3o2)c1C [Example 70] = 3.3
• Cc1c(-c2ccc(CN3CC(C)(C)C3)c(F)c2)cccc1-c1cccc(-c2nc3cc(CN4CCC[C@H]4C(=O)O)c(OC(F)F)cc3o2)c1C [Example 237] = 2.7
• Cc1c(-c2ccc3c(c2)CNC3)cccc1-c1cccc(-c2nc3cc(CN4CCC[C@H]4C(=O)O)c(OC(F)F)cc3o2)c1C [Example 289] = 0.66
• Cc1c(-c2nc3cc(CN4CCC[C@H]4C(=O)O)c(OC(F)F)cc3o2)cccc1-c1cccc(-c2nc3cc(CN4[C@H]5CC[C@@H]4CC5)c(OC(F)F)cc3o2)c1C [Example 72] = 0.98
• CCNCc1cc2nc(-c3cccc(-c4cccc(-c5nc6cc(CN7CCC[C@H]7C(=O)O)c(OC(F)F)cc6o5)c4C)c3C)oc2cc1OC(F)F [Example 21] = 0.59
• Cc1c(-c2ccc(CN3CCCC3)c(OC(F)F)c2)cccc1-c1cccc(-c2nc3cc(CN4CCC[C@H]4C(=O)O)c(OC(F)F)cc3o2)c1C [Example 244] = 2
• Cc1c(-c2nc3cc(CN4CC5(C4)CC5(F)F)c(OC(F)F)cc3o2)cccc1-c1cccc(-c2nc3cc(CN4CCC[C@H]4C(=O)O)c(OC(F)F)cc3o2)c1C [Example 76] = 32
• Cc1c(-c2nc3cc(CNCC4(CO)CC(F)(F)C4)c(OC(F)F)cc3o2)cccc1-c1cccc(-c2nc3cc(CN4CCC[C@H]4C(=O)O)c(OC(F)F)cc3o2)c1C [Example 73] = 0.42
• Cc1c(Nc2nccc3cc(CN4CCC(F)C4)cnc23)cccc1-c1cccc(-c2nc3cc(CN4CCC[C@H]4C(=O)O)c(OC(F)F)cc3o2)c1C (stereo partly shown) [Example 174] = 21
• Cc1c(-c2nc3cc(CN4CC(C)(C)C4)c(OC(F)F)cc3o2)cccc1-c1cccc(-c2nc3cc(CN4CCC[C@H]4C(=O)O)c(OC(F)F)cc3o2)c1C [Example 34] = 1.3
• Cc1c(-c2nc3cc(CN4CC[C@H](C(=O)O)C4)c(OC(F)F)cc3o2)cccc1-c1cccc(-c2nc3cc(CN4CC(C)(C)C4)c(OC(F)F)cc3o2)c1C [Example 86] = 11
• Cc1c(-c2nc3cc(CNCCCNCCO)c(OC(F)F)cc3o2)cccc1-c1cccc(-c2nc3cc(CN4CCC[C@H]4C(=O)O)c(OC(F)F)cc3o2)c1C [Example 58] = 0.79
